Assign IC50 to each entry below.
- system: Neuropeptide Y receptor type 5 (Homo sapiens, UniProt Q15761)
- Sequence (Q15761 whole entry): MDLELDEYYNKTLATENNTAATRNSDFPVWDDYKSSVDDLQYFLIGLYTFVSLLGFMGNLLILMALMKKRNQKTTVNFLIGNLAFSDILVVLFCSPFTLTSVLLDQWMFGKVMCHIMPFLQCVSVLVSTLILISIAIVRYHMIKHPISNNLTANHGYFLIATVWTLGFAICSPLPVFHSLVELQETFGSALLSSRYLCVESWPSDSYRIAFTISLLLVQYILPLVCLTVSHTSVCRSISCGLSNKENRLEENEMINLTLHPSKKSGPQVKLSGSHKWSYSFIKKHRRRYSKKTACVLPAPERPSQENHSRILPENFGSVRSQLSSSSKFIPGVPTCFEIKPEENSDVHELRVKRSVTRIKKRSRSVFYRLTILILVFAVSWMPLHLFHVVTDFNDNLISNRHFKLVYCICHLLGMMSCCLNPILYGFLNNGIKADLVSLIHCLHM
- protocol.details: Inhibition of [125I]-PYY binding to recombinant NPY Y5 receptor on HEK293 cell membranes.
Return type: number; implicit unit µM.

The value of IC50 measured for the compound O=C(NC1CCc2cc(F)ccc2C1Cc1cccnc1)[C@H]1CC[C@H](CNS(=O)(=O)c2ccccc2F)CC1 (some centres undefined) turned out to be 0.012

The recorded IC50 for O=C(NC1CCc2cc(F)ccc2C1Cc1cccnc1)[C@H]1CC[C@H](CNS(=O)(=O)c2ccccc2)CC1 (some centres undefined) is 0.04

What the record says about O=C(CN1CCC(NS(=O)(=O)c2ccccc2)C1)NC1CCc2cc(F)ccc2C1Cc1cccnc1 (centres undefined) : IC50 is 0.011

// field: IC50; key: COc1ccc2c(c1)CCC(NC(=O)[C@H]1CC[C@H](CNS(=O)(=O)c3ccccc3F)CC1)C2Cc1cccnc1 (some centres undefined) ; value = 0.011

----------
I'd be grateful if you could share measured pIC50 for these entries.
- system: Neuropeptide Y receptor type 5 (Homo sapiens)
- Sequence (Q15761 whole entry): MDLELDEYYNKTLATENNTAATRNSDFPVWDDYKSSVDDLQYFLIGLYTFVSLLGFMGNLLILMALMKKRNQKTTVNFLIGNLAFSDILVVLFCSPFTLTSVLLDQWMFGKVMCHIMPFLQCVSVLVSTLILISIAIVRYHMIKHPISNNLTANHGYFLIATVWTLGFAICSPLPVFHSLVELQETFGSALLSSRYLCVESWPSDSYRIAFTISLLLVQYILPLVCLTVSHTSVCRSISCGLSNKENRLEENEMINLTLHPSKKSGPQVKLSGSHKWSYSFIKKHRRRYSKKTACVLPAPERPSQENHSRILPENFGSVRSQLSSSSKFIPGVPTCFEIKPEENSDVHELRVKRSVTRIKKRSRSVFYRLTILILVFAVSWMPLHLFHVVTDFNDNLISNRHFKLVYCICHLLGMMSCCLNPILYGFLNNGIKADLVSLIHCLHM
- protocol.details: Inhibition of [125I]-PYY binding to recombinant NPY Y5 receptor on HEK293 cell membranes.
pIC50 (log units): -log10 of the concentration in mol/L.

The compound listed as O=C(CN1CC[C@H](NS(=O)(=O)c2ccccc2)C1)NC1CCc2cc(F)ccc2C1Cc1cccnc1 (stereo not given in full) has a reported pIC50 of 8.30

Just so you know, measured pIC50 for N[C@@H](CCCCNS(=O)(=O)c1ccccc1F)C(=O)NC1CCc2cc(F)ccc2C1Cc1cccnc1 (stereo not given in full) came out at 7.66

Field pIC50 (entry C=CCC1c2ccc(F)cc2CCC1NC[C@H]1CC[C@H](CNS(=O)(=O)c2ccccc2)CC1 (stereo not given in full) ) reads 7.68

The recorded pIC50 for O=C(CN1CCC(NS(=O)(=O)c2ccccc2)CC1)NC1CCc2cc(F)ccc2C1Cc1cccnc1 (stereo not given) is 8.00

pIC50 recorded for this compound, COc1ccc2c(c1)CCC(NC[C@H]1CC[C@H](CNS(=O)(=O)c3ccc4ccccc4c3)CC1)C2Cc1ccccc1 (stereo not given in full) , is 6.35

The compound COc1ccc2c(c1)CCC(NCCc1ccc(OC)c(OC)c1)C2Cc1ccccc1 (stereo not given) showed pIC50 equal to 6.05

COc1ccc2c(c1)CCC(NC[C@H]1CC[C@H](CNS(=O)(=O)c3ccccc3F)CC1)C2Cc1cccnc1 (stereo not given in full) yielded pIC50 of 7.64

Item: COc1ccc2c(c1)CCC(NCCCCCCNS(=O)(=O)c1ccccc1)C2Cc1cccnc1 (stereo not given) | pIC50: 7.28

C=CCC1c2ccc(O)cc2CCC1NC[C@H]1CC[C@H](CNS(=O)(=O)c2ccccc2)CC1 (stereo not given in full) has a reported pIC50 of 8.30

The reported value for O=S(=O)(NC[C@H]1CC[C@H](CNC2CCc3cc(O)ccc3C2Cc2cccnc2)CC1)c1ccccc1F (stereo not given in full) in terms of pIC50 is 8.15

----------
Hi there, I'd appreciate the recorded pIC50 for every entry that follows.
- system: Neuropeptide Y receptor type 5 (Homo sapiens, UniProt Q15761)
- protocol.details: Inhibition of [125I]-PYY binding to recombinant NPY Y5 receptor on HEK293 cell membranes.
Quick note: pIC50 means taking -log10 of the concentration in moles per liter.

Per the records, this molecule ( O=S(=O)(NC[C@H]1CC[C@H](CNC2CCc3cc(F)ccc3C2Cc2cccnc2)CC1)c1ccccc1 (stereo partly drawn) ) has pIC50 equal to 7.57

Record COc1ccc2c(c1)CCC(NC[C@H]1CC[C@H](CNS(=O)(=O)c3ccc4ccccc4c3)CC1)C2Cc1cccnc1 (stereo partly drawn) . Reported pIC50: 6.47

The molecule identified as C=CCC1c2ccc(F)cc2CCC1NC(=O)[C@H]1CC[C@H](CNS(=O)(=O)c2ccccc2)CC1 (stereo partly drawn) registered its pIC50 at 7.12

The molecule listed as N[C@@H](CCCCNS(=O)(=O)c1ccccc1F)CNC1CCc2cc(O)ccc2C1Cc1cccnc1 (stereo partly drawn) shows pIC50 equal to 9.00

Short answer for O=C(CN1CC[C@@H](NS(=O)(=O)c2ccccc2)C1)NC1CCc2cc(F)ccc2C1Cc1cccnc1 (stereo partly drawn) : pIC50 was 7.57

// pIC50 value for O=S(=O)(NC[C@H]1CC[C@H](CNC2CCc3cc(F)ccc3C2Cc2cccnc2)CC1)c1ccccc1F (stereo partly drawn) : 7.72

Record COc1ccc2c(c1)CCC(NC[C@H]1CC[C@H](CNS(=O)(=O)c3ccccc3)CC1)C2Cc1cccnc1 (stereo partly drawn) . Reported pIC50: 8.00

Data point: COc1ccc2c(c1)CCC(NC(=O)[C@H]1CC[C@H](CNS(=O)(=O)c3ccccc3)CC1)C2Cc1cccnc1 (stereo partly drawn) ; pIC50 = 7.96

Data credit: ChEMBL document CHEMBL1133574
